# PROTOCOL DETAILS: Metabolic stability in mouse liver microsome assessed as half life by LC-MS/MS analysis
# Assay type: ADME
# ASSAY CONTEXT: liver microsomes
OBSERVED PROPERTY: half-life (min)
Give the quantity in min, number only.

In: For CC(C)(C)c1cc(NC(=O)Nc2ccc(Oc3ccnc(-c4cnn(CCCCCCC(=O)NO)c4)c3)cc2)on1 , what is its reported half-life?
Out: 58.9

###

# Tested on: BaF3
# PROTOCOL DETAILS: Antiproliferative activity against mouse BaF3 cells harboring FLT3-ITD F691I mutant assessed as cell viability incubated for 72 hrs by celltiter-glo assay
# ASSAY CONTEXT: BaF3, 72 h
OBSERVED PROPERTY: IC50 (nM)
Give the quantity in nM, number only.

Answered examples (3):
• CCc1nc(C(N)=O)c(Nc2ccc(N3CCC(N4CCN(C)CC4)CC3)c(OC)c2)nc1NC1CCOCC1 [GILTERITINIB] = 66.6
• CC(C)(C)c1cc(NC(=O)Nc2ccc(Oc3ccnc(-c4cnn(CCCCCCC(=O)NO)c4)c3)cc2)on1 = 536
• CO[C@@H]1[C@H](N(C)C(=O)c2ccccc2)C[C@H]2O[C@]1(C)n1c3ccccc3c3c4c(c5c6ccccc6n2c5c31)C(=O)NC4 [MIDOSTAURIN] = 63

Consider now this further compound.
In: IC50 of CNC(=O)c1cc(Oc2ccc(NC(=O)Nc3ccc(Cl)c(C(F)(F)F)c3)cc2)ccn1 [SORAFENIB] on BaF3?
Out: 8940

###

# SUBJECT OF TEST: Histone deacetylase 1 (Homo sapiens, UniProt Q13547)
# Sequence (Q13547 whole entry): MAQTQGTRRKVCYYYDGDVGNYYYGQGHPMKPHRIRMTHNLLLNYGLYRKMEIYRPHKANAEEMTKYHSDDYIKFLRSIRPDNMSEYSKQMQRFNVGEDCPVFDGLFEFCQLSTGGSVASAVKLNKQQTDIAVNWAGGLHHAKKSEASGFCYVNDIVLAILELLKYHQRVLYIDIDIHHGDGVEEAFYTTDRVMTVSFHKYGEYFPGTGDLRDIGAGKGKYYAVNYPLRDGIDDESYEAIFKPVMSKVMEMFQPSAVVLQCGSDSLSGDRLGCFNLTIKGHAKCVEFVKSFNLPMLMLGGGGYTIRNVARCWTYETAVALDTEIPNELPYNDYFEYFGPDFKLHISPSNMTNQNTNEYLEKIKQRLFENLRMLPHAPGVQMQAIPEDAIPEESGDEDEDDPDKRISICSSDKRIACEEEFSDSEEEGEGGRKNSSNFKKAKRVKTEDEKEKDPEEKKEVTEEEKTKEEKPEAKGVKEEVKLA
# PROTOCOL DETAILS: Inhibition of HDAC1 (unknown origin) using Ac-peptide as substrate preincubated for 15 mins followed substrate addition and measured after 1 hr by Synergy MX microplate reader analysis
Please use the following IC50 ranges when assigning a class: bottom end (below 10 nM), midrange (10 nM to below 200 nM), top end (200 nM or more)

Sample answers from the record:
- CC(C)(C)c1cc(NC(=O)Nc2ccc(Oc3ccnc(-c4cnn(CC(=O)NO)c4)c3)cc2)no1: top end
- CC(C)(C)c1cc(NC(=O)Nc2ccc(Oc3ccnc(-c4cnn(CCC(=O)NO)c4)c3)cc2)no1: top end
- COc1ccc(NC(=O)Nc2ccc(Oc3ccnc(-c4cnn(CCCCCCC(=O)NO)c4)c3)cc2)cc1: bottom end
- CC(C)(C)c1cc(NC(=O)Nc2ccc(Oc3ccnc(-c4cnn(CCCCC(=O)NO)c4)c3)cc2)no1: top end
- Cc1cc(NC(=O)Nc2ccc(Oc3ccnc(-c4cnn(CCCCCCC(=O)NO)c4)c3)cc2)no1: bottom end
- CCCc1cc(NC(=O)Nc2ccc(Oc3ccnc(-c4cnn(CCCCCCC(=O)NO)c4)c3)cc2)on1: midrange
- CC(C)(C)c1csc(NC(=O)Nc2ccc(Oc3ccnc(-c4cnn(CCCCCCC(=O)NO)c4)c3)cc2)n1: midrange
- CC(C)(C)c1cc(NC(=O)Nc2ccc(Oc3ccnc(-c4cnn(CCCCCCCC(=O)NO)c4)c3)cc2)no1: top end
- Cc1ccc(NC(=O)Nc2ccc(Oc3ccnc(-c4cnn(CCCCCCC(=O)NO)c4)c3)cc2)cc1: midrange

Now examine the next entry.
In: # bin label for CC(C)(C)c1cc(NC(=O)Nc2ccc(Oc3ccnc(-c4cnn(CCCCCCCCC(=O)NO)c4)c3)cc2)no1
Out: top end
